- Tested on: HCC-366
- protocol notes: relative viability (nuclei count vs DMSO), 5 days (fraction); higher = more cells survive
- run parameters: first compound 0.3162 µM
reported metric: relative viability

CCN(CC)CCCCNc1ncc2cc(-c3cc(OC)cc(OC)c3)c(NC(=O)NC(C)(C)C)nc2n1 + CS(=O)(=O)N1CCN(Cc2cc3nc(-c4cccc5[nH]ncc45)nc(N4CCOCC4)c3s2)CC1 [Pictilisib] (partner 1 µM); 0.164

Return reported relative viability values for all items listed beneath this line.
1. CCN(CC)CCCCNc1ncc2cc(-c3cc(OC)cc(OC)c3)c(NC(=O)NC(C)(C)C)nc2n1 + Nc1nc2[nH]cc(CCc3ccc(C(=O)N[C@@H](CCC(=O)O)C(=O)O)cc3)c2c(=O)[nH]1 [Pemetrexed] (partner 0.2 µM)
2. CCN(CC)CCCCNc1ncc2cc(-c3cc(OC)cc(OC)c3)c(NC(=O)NC(C)(C)C)nc2n1 + N=C(N)NC(=N)NCCc1ccccc1 [Phenformin] (partner 250 µM)
3. O=c1cc(N2CCOCC2)oc2c(-c3cccc4c3sc3ccccc34)cccc12 + NC(=O)Nc1cc(-c2cccc(F)c2)sc1C(=O)N[C@H]1CCCNC1 [AZD7762] (partner 0.2 µM)

1. 0.172
2. 0.622
3. 0.287

* * *

- System: HOP-62
- protocol notes: relative viability (nuclei count vs DMSO), 5 days (fraction); higher = more cells survive
- run parameters: first compound 0.1 µM
For each of the compounds below, state its relative viability.
Numbers only.

O=c1cc(N2CCOCC2)oc2c(-c3cccc4c3sc3ccccc34)cccc12 + O=C(CCCCCCC(=O)Nc1ccccc1)NO [Vorinostat] (partner 1 µM); 0.58
CCN(CC)CCCCNc1ncc2cc(-c3cc(OC)cc(OC)c3)c(NC(=O)NC(C)(C)C)nc2n1 + N=C(N)NC(=N)NCCc1ccccc1 [Phenformin] (partner 250 µM); 0.604

Return reported relative viability values for all items listed beneath this line.
1. O=c1cc(N2CCOCC2)oc2c(-c3cccc4c3sc3ccccc34)cccc12 + CS(=O)(=O)N1CCN(Cc2cc3nc(-c4cccc5[nH]ncc45)nc(N4CCOCC4)c3s2)CC1 [Pictilisib] (partner 1 µM)
2. O=c1cc(N2CCOCC2)oc2c(-c3cccc4c3sc3ccccc34)cccc12 + CCNC(=O)c1noc(-c2cc(C(C)C)c(O)cc2O)c1-c1ccc(CN2CCOCC2)cc1 [Luminespib] (partner 0.01 µM)
3. CCN(CC)CCCCNc1ncc2cc(-c3cc(OC)cc(OC)c3)c(NC(=O)NC(C)(C)C)nc2n1 + CC(C)C[C@H](NC(=O)[C@H](Cc1ccccc1)NC(=O)c1cnccn1)B(O)O [Bortezomib] (partner 0.002 µM)

[0.594, 0.842, 0.728]

* * *

- System: NCI-H460
- protocol notes: relative viability (nuclei count vs DMSO), 5 days (fraction); higher = more cells survive
- run parameters: first compound 2.53 µM
reported metric: relative viability

Some solved cases for reference:
COc1nc(C)cnc1NS(=O)(=O)c1cccnc1-c1ccc(-c2nnco2)cc1 [Zibotentan] + CS(=O)(=O)CCNCc1ccc(-c2ccc3ncnc(Nc4ccc(OCc5cccc(F)c5)c(Cl)c4)c3c2)o1 [Lapatinib] (partner 2 µM); 1.12
O=c1cc(-c2cccc3c2Sc2ccccc2S3)oc(N2CCOCC2)c1 + N=C(N)NC(=N)NCCc1ccccc1 [Phenformin] (partner 250 µM); 0.525
O=c1cc(-c2cccc3c2Sc2ccccc2S3)oc(N2CCOCC2)c1 + O=C(CCCCCCC(=O)Nc1ccccc1)NO [Vorinostat] (partner 1 µM); 0.692
COc1nc(C)cnc1NS(=O)(=O)c1cccnc1-c1ccc(-c2nnco2)cc1 [Zibotentan] + NC(=O)Nc1cc(-c2cccc(F)c2)sc1C(=O)N[C@H]1CCCNC1 [AZD7762] (partner 0.2 µM); 0.749

Next molecule, relative viability to be filled in.
Record COc1nc(C)cnc1NS(=O)(=O)c1cccnc1-c1ccc(-c2nnco2)cc1 [Zibotentan] + CCNC(=O)c1noc(-c2cc(C(C)C)c(O)cc2O)c1-c1ccc(CN2CCOCC2)cc1 [Luminespib] (partner 0.01 µM) : what is its relative viability with NCI-H460?
0.0332
